The following compounds are shown together with reported IC50 values.
# Test system: human lung cancer cell line Calu-6
# ASSAY NOTES: Cell growth inhibition test (1)
# Assay type: cell-based
# RUN PARAMETERS: Calu-6, 144 h, read-out: IC50, growth-suppressing effect, added together with 2 μM olaparib, Calu-6, 6 days

COc1cc2c(cc1OCCCCCOc1cc3c(cc1OC)C(=O)N1CC4(CC4)C[C@H]1CN3)N=C[C@@H]1CC3(CC3)CN1C2=O ... 0.0794 nM
COc1ccc(C2=CN3C(=O)c4cc(OC)c(OCCCCCOc5cc6c(cc5OC)C(=O)N5CC7(CC7)C[C@H]5C=N6)cc4NC[C@@H]3C2)cc1 ... 0.0043 nM

Attention now turns to another entry.
query: What does the record list as IC50 for COc1ccc(C2=CN3C(=O)c4cc(OC)c(OCCCOc5cc6c(cc5OC)C(=O)N5CC7(CC7)C[C@H]5C=N6)cc4NC[C@@H]3C2)cc1 ?
result: 0.0894 nM
